Attribute: self-cleavage
B1: LINE1-full (parent)
chain: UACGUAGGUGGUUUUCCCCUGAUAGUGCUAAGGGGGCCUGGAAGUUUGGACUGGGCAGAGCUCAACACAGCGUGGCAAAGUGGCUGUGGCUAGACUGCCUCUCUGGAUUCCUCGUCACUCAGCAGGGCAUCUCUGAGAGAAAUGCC

# Variants of: B1
# test_method_notes: self-cleavage, relative activity (ratio to wild type); higher = more cleavage; in vitro, sequencing; the parent is a self-cleaving ribozyme
Output spec: single numeric token, no unit.

In [3]: df
Out[3]:
   mutation_string   readout_name  value_reported
0      A107G U112C  self-cleavage            1.68
1       U87C A129U  self-cleavage            0.15
2        U29C A64U  self-cleavage            0.54

Q) For the variant U87A U119A , give its measured self-cleavage value.
A) 0.08

Q) For the variant U13C G32U , give its measured self-cleavage value.
A) 1.2

Q) For the variant C76U C98U , give its measured self-cleavage value.
A) 0.61

Q) For the variant G60A U85C , give its measured self-cleavage value.
A) 0.01
